Target: T1, HCV bt-141-161 (Peptide 2, HCVc 141-161) (Hepatitis C virus (numbering per HCV-1), biotin (carboxy-terminal per; N-terminal per))
T1 peptide: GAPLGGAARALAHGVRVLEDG
Test: EIA, captured mAb + biotin peptide
Collected Reactivity (OD 492 nm) values appear next to each entry.
value kind: Reactivity (OD 492 nm) (OD units)

binder	value kind	number
HCV 208B-556 (antibody, V domains shown) VH: QLQQSGPVLVKPGASVMISCKTSGYTFTENAMHWVKQSHGKSLEWIGGVNPNNGDTIFNQKFKGKATLTVDKSSSTAFMEFRSLTSEESTVYYCVRRELDFFDYWGQGTSVTVSS VL: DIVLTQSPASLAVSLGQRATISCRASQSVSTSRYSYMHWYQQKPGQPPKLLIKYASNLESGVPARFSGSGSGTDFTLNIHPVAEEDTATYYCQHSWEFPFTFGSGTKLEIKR	Reactivity (OD 492 nm)	3.07
HCV 208A-442 (antibody, V domains shown) VH: DVQLQESGPGLVNPSQSLSLTCSVTGYSITSGYYWIWIRQFPGNKLEWMGYIKYDGGNNYSPSLKNRISIARDTSKNQFFLKLNSVTIEDTATYYCTRGSDSFDYWGQGTTLTVSS VL: DIVLTQSPASLAVSLGQRAIISCKASQSVSFAGTNLMHWYQQKPGQQPKLLIYRASNLETGVPTRFSGSGSRTDFTLNIHPVEEDDAATYYCQQSREYYTFGGGTKLEIKR	Reactivity (OD 492 nm)	3.04

This collection of values is drawn from patent US20170052184A1.
